# tested-on: T1, EVA-4 (UniProt P0C8E9 24-127, biotin on the Avi-tag (Bir-A ligase))
# T1 sequence (looked up): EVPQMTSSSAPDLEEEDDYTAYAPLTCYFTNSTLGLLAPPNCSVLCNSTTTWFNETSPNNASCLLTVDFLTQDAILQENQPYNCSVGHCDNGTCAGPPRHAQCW
# protocol-description: SPR
measurement-type: Kd (nM)

- binder: "CCL23 (ligand, human, UniProt P55773 22-120, looked up) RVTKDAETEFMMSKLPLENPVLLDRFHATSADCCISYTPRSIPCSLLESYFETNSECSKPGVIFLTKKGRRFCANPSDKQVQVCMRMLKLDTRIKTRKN"
  unit-text: "nM"
  Kd: 7.4
- binder: "CCL22 (ligand, human, UniProt O00626 25-93, looked up) GPYGANMEDSVCCRDYVRYRLPLRVVKHFYWTSDSCPRPGVVLLTFRDKEICADPRVPWVKMILNKLSQ"
  unit-text: "nM"
  Kd: 8.5
- binder: "CCL5 (ligand, human, UniProt P13501 24-91, looked up) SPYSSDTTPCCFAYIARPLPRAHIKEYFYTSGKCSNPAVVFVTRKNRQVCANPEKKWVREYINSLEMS"
  unit-text: "nM"
  Kd: 6.1
